Tested on: MDA-N
protocol_details: NCI tumour cell line growth inhibition, 48 h
Activity calls are given as the source filed them. Cut-off read from the data, not from the text of the source: active = GI50 up to about 1.1 µM and inactive = higher.
Hi! Could you answer with just one of these? Yes = active, No = inactive

Use these answered entries as a reference point.
>  <compound>
COc1ccc2c(=O)c(-c3cc(OC)c(OC)cc3OC)coc2c1

>  <class_name>
Yes

$$$$
>  <compound>
COc1cc(O)cc2oc(-c3ccc(O)cc3)cc(=O)c12

>  <class_name>
No

$$$$
>  <compound>
CN(CCCN(C)CCc1ccc(Cl)c(Cl)c1)CCCN1CCCC1

>  <class_name>
No

$$$$
>  <compound>
CCC(C)C(Nc1c2ccccc2nc2c(C(=O)NCCN(C)C)cccc12)C(=O)O (configuration not stated)

>  <class_name>
No

$$$$
>  <compound>
O=P1(O)c2ccccc2CSCc2ccccc21

>  <class_name>
No

$$$$

### Prompt Could you kindly confirm the outcome this assay logged for Cc1cc(S(=O)(=O)Nc2nnc3c(C(F)(F)F)cc(Cl)cn23)c(S)cc1Cl ?
### Response No

### Prompt Which outcome did this test record for the compound CCOC(=O)C(O)(NC(=O)NC(O)(C(=O)OCC)C(F)(F)F)C(F)(F)F (configuration not stated) ?
### Response No

### Prompt Please indicate how the test categorized Cc1c2ccncc2cc2c1sc1ccncc12 .
### Response No

### Prompt Dear all, I need the recorded test outcome for Cc1noc(NS(=O)(=O)c2ccc(NC(=O)c3ccc4[nH]c5ccccc5c(=O)c4c3)cc2)c1C , thank you.
### Response No

### Prompt Which result was noted for this compound in the test: O=S(=O)(O)c1ccc(/N=N/c2ccccc2)cc1
### Response No

###

Tested on: KM12
protocol_details: NCI tumour cell line growth inhibition, 48 h
Activity calls are given as the source filed them. No stated cut-off is given here; in the data, active = GI50 up to about 1.1 µM and inactive = higher.
Catalogue of GI50 values

Worked set:
>  <compound>
O=C1Nc2ccccc2Cn2c1cc1oc(-c3ccccc3)cc12

>  <endpoint>
GI50

>  <measured_result>
95.1 µM (inactive)

$$$$
>  <compound>
CC(=O)N1c2cc(/N=N/N(C)C)ccc2NC(=O)CC1C (stereo unspecified)

>  <endpoint>
GI50

>  <measured_result>
> 100 µM (inactive)

$$$$
>  <compound>
Cc1nc2ccccc2n1C(=O)c1c(F)c(F)c(F)c(F)c1F

>  <endpoint>
GI50

>  <measured_result>
3.13 µM (inactive)

$$$$
>  <compound>
C/C(=N\O)c1cccc(Nc2nc3ccccc3c3occc23)c1

>  <endpoint>
GI50

>  <measured_result>
10 µM (inactive)

$$$$
>  <compound>
CCCCCCOc1ccc(NC2=C(Cl)C(=O)c3ncccc3C2=O)cc1

>  <endpoint>
GI50

>  <measured_result>
1.33 µM (inactive)

$$$$

### Prompt Query the reported GI50 for KM12; item: CCCCCCCCCCCCC(SCCNC(=O)CCNC(=O)C(O)C(C)(C)COP(=O)(O)OP(=O)(O)OCC1OC(n2cnc3c(N)ncnc32)C(O)C1OP(=O)(O)O)C(=O)NCC(N)=O (stereo unspecified)
### Response > 100 µM (inactive)

### Prompt # get_value(readout= GI50, system= KM12) for O=C(/C=C/c1cccc(Br)c1)c1ccc(Cl)cc1
### Response 11.8 µM (inactive)

### Prompt # value lookup — system KM12, readout GI50, item COC[C@@H](/N=C/C(C)(C)C)C(C)C
### Response > 100 µM (inactive)

### Prompt // map COC(=O)C(NC(=O)C12CCC(C)(C(=O)O1)C2(C)C)c1cc(C(C)(C)C)c(O)c(C(C)(C)C)c1 (stereo unspecified) to recorded GI50 (system: KM12)
### Response 23.5 µM (inactive)

### Prompt Look up GI50 with KM12 for this compound: CCOC(=O)Cc1nc2c(N)ncnc2n1C1OC(COC(C)=O)C(OC(C)=O)C1OC(C)=O (stereo unspecified)
### Response > 100 µM (inactive)

### Prompt GI50 of C(/C=N/N=C1NCCN1)=N\N=C1NCCN1 on KM12?
### Response > 100 µM (inactive)

###

Tested on: DMS-273
protocol_details: NCI tumour cell line growth inhibition, 48 h
The source made the active and inactive calls. Cut-off read from the data, not from the text of the source: active = GI50 up to about 1.1 µM and inactive = higher.
Your answer must be one of the following: active, inactive

Examples with answers:
>  <compound>
C[Si](C)(C)/C=C/CN1C(=O)CCC1=O

>  <target_entity>
DMS-273

>  <class_name>
inactive

$$$$
>  <compound>
O=C(CCc1nnc2s/c(=C\c3ccc(Cl)cc3Cl)c(=O)n12)Nc1cc(Cl)c(Cl)cc1Cl

>  <target_entity>
DMS-273

>  <class_name>
inactive

$$$$
>  <compound>
COC(=O)/C=C1/CCC(C(=O)OC)N1 (stereo not given)

>  <target_entity>
DMS-273

>  <class_name>
inactive

$$$$
>  <compound>
CCC1(O)C(=O)OCc2c1cc1n(c2=O)Cc2cc3c(N)cccc3nc2-1 (stereo not given) [RS-9-Aminocamptothecin]

>  <target_entity>
DMS-273

>  <class_name>
active

$$$$

### Prompt What call does the record list for O=C(NN1C(=O)CS(=O)(=O)C1c1ccc(Cl)c(Cl)c1)c1ccncc1 (stereo not given) ?
### Response inactive

###

Test system: NCI-H226
protocol_details: NCI tumour cell line growth inhibition, 48 h
Calls of active or inactive are those of the source. Rule as the data show it: active = GI50 up to about 1.1 µM and inactive = higher.
endpoint: GI50

>  <compound>
O=C1C=C(Nc2ccccc2C(=O)c2ccccc2)c2ccccc2C1=O

>  <target_entity>
NCI-H226

>  <GI50>
> 100 µM (inactive)

$$$$
>  <compound>
COc1cc(/C=C2\C(=O)N(c3cccc(Cl)c3)C(c3ccccc3)S2(=O)=O)cc(OC)c1OC (centres undefined)

>  <target_entity>
NCI-H226

>  <GI50>
89.7 µM (inactive)

$$$$
>  <compound>
O=C(/C=N/O)c1c(-c2ccccc2)[nH]c(-c2ccccc2)c1-c1ccccc1

>  <target_entity>
NCI-H226

>  <GI50>
26.2 µM (inactive)

$$$$

### Prompt Could you tell me which GI50 is on file for O=C(NC1CCCCC1)NS(=O)(=O)c1ccc2c(c1)CCC2 [GLYHEXAMIDE] ?
### Response > 100 µM (inactive)

###

Test system: 786-0
protocol_details: NCI tumour cell line growth inhibition, 48 h
The source made the active and inactive calls. Cut-off read from the data, not from the text of the source: active = GI50 up to about 1.1 µM and inactive = higher.
endpoint: GI50

Consider the worked cases shown below.
>  <compound>
O=[N+]([O-])c1cccc(C2=NN(c3ccccc3)C3c4ccccc4OCC23)c1 (stereo not given)

>  <GI50>
> 100 µM (inactive)

$$$$
>  <compound>
CC(C)=CCC/C(C)=C/COc1c2ccoc2cc2oc(=O)ccc12

>  <GI50>
32.4 µM (inactive)

$$$$
>  <compound>
C/C(CC(=O)Nc1cc(C)ccc1C)=N/N=C(N)N

>  <GI50>
> 100 µM (inactive)

$$$$
>  <compound>
Cc1csc2c(=O)n(COCc3ccccc3)c(=O)[nH]c12

>  <GI50>
> 100 µM (inactive)

$$$$
>  <compound>
COc1ccc(/C=C2\CCCCC2=O)cc1

>  <GI50>
> 100 µM (inactive)

$$$$
>  <compound>
CC(=O)O[C@H]1CC[C@@]2(C)C(=CC[C@@H]3[C@@H]2CC[C@]2(C)c4nc(N)c(C#N)cc4C[C@@H]32)C1

>  <GI50>
28.7 µM (inactive)

$$$$
>  <compound>
COc1cccc(/N=N/C(=NNC(=O)c2ccc(C)cc2)c2ccc(N(C)C)cc2)c1

>  <GI50>
> 100 µM (inactive)

$$$$
>  <compound>
O=c1[nH]c(=O)n(C2OC(CO)C(O)C(F)C2O)cc1F (stereo not given)

>  <GI50>
> 100 µM (inactive)

$$$$
>  <compound>
CC(=O)OCC1C(C(C)OC(C)=O)CCC2C1CCC1(C)C(OC(C)=O)CCC21 (stereo not given)

>  <GI50>
22.6 µM (inactive)

$$$$

# next compound below
### Prompt Reported GI50, compound O=c1[nH]c(=O)n(C2CC(O)C(CO)O2)cc1C(OCC(F)(F)F)OCC(F)(F)F (stereo not given) : ____
### Response > 100 µM (inactive)

###

Test system: SNB-78
protocol_details: NCI tumour cell line growth inhibition, 48 h
Activity calls are given as the source filed them. No stated cut-off is given here; in the data, active = GI50 up to about 1.1 µM and inactive = higher.
Write down one outcome, taken from True for active, False for inactive

Worked examples, 4 molecules total:
>  <molecule>
COc1ccc(/C=C2\CCCCC2=O)cc1

>  <class_name>
False

$$$$
>  <molecule>
C[Si](C)(C)/C=C/CN1C(=O)CCC1=O

>  <class_name>
False

$$$$
>  <molecule>
Cc1cc(Br)ccc1NC1=CC(=O)C(=O)c2ccccc21

>  <class_name>
False

$$$$
>  <molecule>
O=C1C(Br)=CC2(C=C1Br)CCNC1=C2C(=O)c2ccccc2C1=O

>  <class_name>
False

$$$$

### Prompt Outcome? O=[N+]([O-])c1cccc(C2=NN(c3ccccc3)C3c4ccccc4OCC23)c1 (stereo unspecified)
### Response False

### Prompt Dear colleague, could you share the recorded outcome for COc1ccccc1NC(=O)C(CC(C(=O)Nc1ccccc1OC)/C(C)=N/NC(=O)c1ccccc1O)/C(C)=N/NC(=O)c1ccccc1O (stereo unspecified) when you have a moment?
### Response False

### Prompt Answer briefly: the call reported for CC1(C)CC[C@]2(C(=O)O)CCC3(C)C(=CCC4[C@@]5(C)CC[C@H](OC6OCC(O)C(O)C6OC6OC(CO)C(O)C(O)C6O)C(C)(C)C5CC[C@]43C)C2C1 (stereo partly specified) in this assay.
### Response False

### Prompt Answer briefly: the call reported for C[N+](C)([O-])CCOc1cc2c(c3ccccc13)-c1ccccc1C2=O in this assay.
### Response False

### Prompt Write down the call the test reported for this molecule. Item: COc1ccccc1-c1cc(=O)c2ccccc2[nH]1
### Response False

### Prompt Name the outcome recorded for C=CCn1c(=S)sc2c(C(=O)OCC)c3c(C)cc(C)cn3c2c1=O in the assay.
### Response False

### Prompt Tell me the recorded outcome of this test for C/C(CC(=O)Nc1cc(C)ccc1C)=N/N=C(N)N .
### Response False

### Prompt Would you mind telling me which call this test gave COC(OC)[C@@H](C)[C@H](O)[C@](C)(O)C1OC(C)(C)OC(C(C)C=C(C)C)C1C (stereo partly specified) ?
### Response False

### Prompt Check the results log: what was the call for CC1(C)OP23(NC(=O)OC2(C(F)(F)F)c2ccccc2O3)OC1(C)C (stereo unspecified) ?
### Response False

### Prompt # fetch the recorded call for COc1cc(C2C(C(=O)O)=C(CO)Oc3cc4c(cc32)OCO4)cc(OC)c1O (stereo unspecified) here
### Response False

### Prompt What did this assay record as the result for Cc1c2ccncc2cc2c1sc1ccncc12 ?
### Response False

### Prompt For CCOC(=O)C(C(=O)OCC)=c1sc(=C(C(=O)OCC)C(=O)OCC)s1 , what call appears in the results of this test?
### Response False

### Prompt Returns: the outcome recorded for CC(=O)OCC1OC(OC2CC3C(C)(C)C(OC(C)=O)CC[C@]3(C)C3CCC45CC4(CC[C@H]5C(C)CC(O)C4OC4(C)C)[C@]23C)C(O)C(O)C1O (stereo partly specified) in this assay.
### Response False

### Prompt So what was the verdict on Cc1ccc(Nc2nc(-c3ccc(-c4ccc([N+](=O)[O-])cc4)o3)cs2)cc1 in this test?
### Response False

### Prompt For CCOC(=O)C(=O)Nc1nc2ccc(C)cc2s1 , which call appears in the assay record?
### Response False
